Hello, the source for this data is ChEMBL document CHEMBL4177579, in case you need it.

Entries annotated with measured MIC80
Tested on: Candida albicans
Assay: Antifungal activity against CDR1 and CDR2 deficient Candida albicans DSY654 incubated for 48 hrs by alamar blue assay
Assay type: functional
Details: DSY654, 48 h

# molecule smiles, assay readout, reading
rows = [
    ("C=C1CCC[C@@]2(C)C[C@@H]3OC(=O)[C@](CO)(OCC)[C@@H]3C[C@H]12", "MIC80", "> 128 mg/L"),
    ("C=C(C)[C@@H]1C[C@@]2(C(C)=O)C[C@@H](O)C[C@@]2(C)C[C@@H]1O", "MIC80", "> 128 mg/L"),
]

// moving on: another record for MIC80
MIC80 value, target or system Candida albicans, for "C=C1CCC[C@@]2(C)C[C@H](O)[C@H](C(=C)C)C[C@H]12" : 64 mg/L
